Test: Approximate solubility of Compound I free acid Form A in 14 solvents at RT
Type: physicochemical
Conditions: organic solvent or mixture, thermodynamic from solid, MTBE
attribute-measured: solubility

Challenge: Reported solubility, molecule CCOc1cccc(-c2nc3ncc(NS(C)(=O)=O)nc3n2-c2c(OC)cccc2OC)n1 [Compound I free acid Form A] : ____
Response given: < 900 µg/mL

###

Assay: physchem
Conditions: 2-MeTHF, 26 °C, organic solvent or mixture, thermodynamic from solid
Where a name gives a salt, the structure may show the parent alone.
attribute-measured: solubility

Challenge: Reported solubility, molecule CCOc1cccc(-c2nc3ncc(NS(C)(=O)=O)nc3n2-c2c(OC)cccc2OC)n1 [Compound I choline salt Form A] : ____
Response given: < 1800 µg/mL
